- measured.target: T1, human αvβ5-integrin (human, UniProt P06756 31-992; P18084 24-719, limits assumed)
- T1 construct: Soluble integrin bought from Millipore
- T1 sequence (P06756 31-992 limits assumed, chain 1 of 2): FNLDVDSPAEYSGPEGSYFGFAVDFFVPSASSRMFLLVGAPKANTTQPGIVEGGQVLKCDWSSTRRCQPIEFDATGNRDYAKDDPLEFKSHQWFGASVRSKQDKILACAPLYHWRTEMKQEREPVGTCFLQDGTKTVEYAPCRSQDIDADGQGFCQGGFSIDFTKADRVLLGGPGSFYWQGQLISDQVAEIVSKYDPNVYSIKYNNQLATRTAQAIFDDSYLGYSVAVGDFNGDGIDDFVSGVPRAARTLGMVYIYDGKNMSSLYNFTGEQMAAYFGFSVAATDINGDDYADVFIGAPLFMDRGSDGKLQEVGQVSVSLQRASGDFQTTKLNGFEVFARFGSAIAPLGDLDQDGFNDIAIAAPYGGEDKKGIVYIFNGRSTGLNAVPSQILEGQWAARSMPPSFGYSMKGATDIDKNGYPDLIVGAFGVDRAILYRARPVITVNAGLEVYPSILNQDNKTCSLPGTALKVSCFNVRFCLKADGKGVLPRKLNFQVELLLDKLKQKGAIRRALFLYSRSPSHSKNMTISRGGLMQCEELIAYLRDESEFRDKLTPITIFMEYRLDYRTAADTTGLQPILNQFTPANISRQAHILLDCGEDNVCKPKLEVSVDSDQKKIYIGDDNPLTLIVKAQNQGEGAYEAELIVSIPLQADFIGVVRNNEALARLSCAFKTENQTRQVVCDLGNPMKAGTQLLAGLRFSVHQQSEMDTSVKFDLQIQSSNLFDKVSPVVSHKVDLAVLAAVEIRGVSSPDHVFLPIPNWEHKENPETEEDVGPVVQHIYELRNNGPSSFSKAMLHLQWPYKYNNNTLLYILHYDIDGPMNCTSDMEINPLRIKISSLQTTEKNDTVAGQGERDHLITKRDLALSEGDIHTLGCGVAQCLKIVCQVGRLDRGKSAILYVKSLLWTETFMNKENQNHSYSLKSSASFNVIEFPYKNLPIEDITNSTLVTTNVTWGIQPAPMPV
- T1 sequence (P18084 24-719 limits assumed, chain 2 of 2): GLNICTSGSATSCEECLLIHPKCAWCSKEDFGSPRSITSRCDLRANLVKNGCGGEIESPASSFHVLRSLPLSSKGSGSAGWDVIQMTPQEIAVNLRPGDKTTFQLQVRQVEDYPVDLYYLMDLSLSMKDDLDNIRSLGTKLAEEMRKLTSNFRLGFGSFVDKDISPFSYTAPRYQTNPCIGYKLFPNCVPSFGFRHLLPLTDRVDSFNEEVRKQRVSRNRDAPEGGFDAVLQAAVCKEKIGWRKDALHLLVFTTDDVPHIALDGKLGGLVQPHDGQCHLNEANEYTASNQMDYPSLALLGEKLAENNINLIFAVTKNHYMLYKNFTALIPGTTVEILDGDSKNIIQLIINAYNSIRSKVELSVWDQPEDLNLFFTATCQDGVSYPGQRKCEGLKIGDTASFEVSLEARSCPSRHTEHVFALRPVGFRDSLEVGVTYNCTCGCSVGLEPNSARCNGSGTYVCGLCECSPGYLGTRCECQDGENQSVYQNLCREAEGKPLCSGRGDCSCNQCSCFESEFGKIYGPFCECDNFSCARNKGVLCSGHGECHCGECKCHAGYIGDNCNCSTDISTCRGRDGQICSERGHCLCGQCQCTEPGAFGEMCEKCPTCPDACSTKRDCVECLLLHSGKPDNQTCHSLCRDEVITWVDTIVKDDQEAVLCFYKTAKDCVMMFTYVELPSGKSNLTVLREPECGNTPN
- assay.summary: solid-phase competition assay: soluble human αvβ5 on coated vitronectin
pIC50: −log10 of the molar value. [ ]: non-standard residue; d: D form. dNMeR = CN[C@H](CCCNC(=N)N)C(=O)O; NMeA = CN[C@@H](C)C(=O)O; dNMeA = CN[C@H](C)C(=O)O
endpoint: pIC50

> print(dat)
                                     binder  endpoint  reading
1  cyclo([dNMeR]GDA[NMeA]A) (NMe(1,5) scaffold cyclic hexapeptide) [peptide 5, c(*rGDA*AA)]     pIC50     6.77
2  cyclo([dNMeA]RGDA[NMeA]) (NMe(1,6) scaffold cyclic hexapeptide; also called the drug) [peptide 12, c(*aRGDA*A)]     pIC50     5.82
